test system: P388 leukemia ip, CD2F1 mice, survival T/C; assay: NCI In Vivo Anticancer Drug Screen. Data for tumor model P388 Leukemia (intraperitoneal) in CD2F1 (CDF1) mice; conditions: endpoint: median survival time; dose: 200.0 mg/kg/injection; schedule: Q01DX009 (ip); vehicle: Klucel (hydroxypropylcellulose) (HPC); higher = longer survival
Inconclusive results and toxic doses are left out.
MEASURED PROPERTY: T/C

CCN(CC)Cc1cc(N=Nc2cccc3ccccc23)c2ccccc2c1O : 100 % of control
NC(=O)C(CCc1nc2ccccc2[nH]1)NS(=O)(=O)c1ccccc1 (stereo unspecified) : 102 % of control
O=C(O)CCC(=O)NCC1CCCC(CNC(=O)CCC(=O)O)C1 (stereo unspecified) : 101 % of control

// CCCCCCC(O)/C=C/c1ccc(N(C)C)cc1 (stereo unspecified) : T/C value = 102 % of control

// COC1/C=C\OC2(C)Oc3c(C)c(O)c4c(c3C2=O)C2=NC(C)(C)N(c3ccccc3)C2=C(NC(=O)/C(C)=C\C=C\C(C)C(O)C(C)C(O)C(C)C(OC(C)=O)C1C)C4=O (stereo unspecified) : T/C value = 107 % of control

// CCOC(=O)C1(n2[nH]c(=O)n(-c3ccccc3)c2=O)CC(C)(C)OC1=O (stereo unspecified) : T/C value = 98 % of control
